Cited source: the array DNA melting data of Ke et al. (doi:10.1101/2024.01.08.574731)

Assay: melting temperature; fluorescence melt of hairpins on a sequencing array, two-state fit, raised by 9.35 °C to match UV melts
Conditions: sodium 0.088 M
value kind: Tm (°C)
Lab book: enter the figure in °C, no units written.

Some sequences with recorded Tm:
- GCCTCGCGAAAGCGACGC ((.((((....)))).)): 52.6
- GATCTCATCTGAGATC ((((((....)))))): 53.6
- GCCGTCGAAAGACCAGGC ((((((....)))..))): 48.9
- GAACTCGGAAACGAATTC (((.(((....))).))): 31.7

Request: Indicate its recorded Tm; the sequence in question is GACCGGGGAAACCTGGTC ((((.((....)).))))
Result: 55.4

Request: Indicate its recorded Tm; the sequence in question is GTTTCCGCGAAAGCGAAC (((..(((....))))))
Result: 23.6

Request: Indicate its recorded Tm; the sequence in question is GCTGTGCGAAAGCTCTGC ((.(.((....)).).))
Result: 44.6

Request: Indicate its recorded Tm; the sequence in question is CGTTGCCGGAAACGGACG (((..(((....))))))
Result: 44.3

Request: Indicate its recorded Tm; the sequence in question is GAAAGCCCGAAAGGGTTC (((..(((....))))))
Result: 27.9

Request: Indicate its recorded Tm; the sequence in question is GATGCTGCGAAAGCAATC (((..(((....))))))
Result: 29.3

Request: Indicate its recorded Tm; the sequence in question is GGATCGGGAAACCGGTCC (((.(((....))).)))
Result: 56.1

Request: Indicate its recorded Tm; the sequence in question is GACTGAGGAAACTCAGCC (.(((((....))))).)
Result: 43.4

---

Measured Tm, listed per entry for reference.
Test: melting temperature; fluorescence melt of hairpins on a sequencing array, two-state fit, raised by 9.35 °C to match UV melts
Conditions: sodium 0.088 M
Lab book: enter the figure in °C, no units written.

- GCCTTTGGAAACAAAGGC (((((((....))))))): 66.7

Request: Indicate its recorded Tm; the sequence in question is GGAATTGGAAACGATTCC (((((.(....).)))))
Result: 45.6

Request: Indicate its recorded Tm; the sequence in question is GTGCTGCGAAAGCAACAC (((.(((....))).)))
Result: 56.5

Request: Indicate its recorded Tm; the sequence in question is GAATCCGAAAGGAGCTTC ((((((....)))..)))
Result: 41.6

Request: Indicate its recorded Tm; the sequence in question is GGCGAACGAAAGTTTGCC (((.(((....))).)))
Result: 62.1

---

Test: folding enthalpy; higher = less favourable; fluorescence melt of hairpins on a sequencing array, two-state fit
Conditions: sodium 0.088 M
Note to self: values exactly at -30 kcal/mol are rule met. So folding enthalpy at or above -30 kcal/mol is rule met, below is rule not met.

Example cases with answers are listed next.
* GGACAGCGAAAGCTCTCC (((.(((....))).))) | rule met
* GGTATACGAAAGTAGACC (((.(((....))).))) | rule not met
* GTTCGCGGAAACGTGGAC ((.(.((....)).).)) | rule met
* GTCTCTGCGAAAGCAGAC (((..(((....)))))) | rule met
* GATCTGCTTCAGATC ((((((...)))))) | rule not met

Request: Could you tell me if the measured folding enthalpy of GCTGGCGAAAGCCGGAGC ((((((....)))..))) reaches -30 kcal/mol or more?
Result: rule met

Request: Could you tell me if the measured folding enthalpy of GCTACTCGAAAGAGAGC (((.(((....)))))) reaches -30 kcal/mol or more?
Result: rule met
